In what follows, each item is paired with its IC50 for 15-LOX (Glycine max).
Numbers only, in µM.

Please review the following examples before continuing.
INSERT INTO assay_data (mol, study_target, recorded_value) VALUES
  ('CN(C)c1ccc(C=C(CC(=O)c2ccc(Cl)c(Cl)c2)C(=O)NCc2ccccc2)cc1', '15-LOX (Glycine max)', 4.67),
  ('CN(C)c1ccc(C=C2C=C(c3ccc(Cl)c(Cl)c3)N(C(=O)c3ccccc3)NC2=O)cc1', '15-LOX (Glycine max)', 3.17);

The following molecules each have a reported value; give each one's IC50.
1. CN(C)c1ccc(C=C2C=C(c3ccc(Cl)c(Cl)c3)NC2=O)cc1
2. NNC(=O)C(=Cc1ccccc1[N+](=O)[O-])CC(=O)c1ccc(Cl)c(Cl)c1
3. O=C1NC(c2ccc(Cl)c(Cl)c2)=CC1=Cc1cccc([N+](=O)[O-])c1
4. O=C(NCc1ccccc1)C(=Cc1ccccc1[N+](=O)[O-])CC(=O)c1ccc(Cl)c(Cl)c1
5. CN(C)c1ccc(C=C(CC(=O)c2ccc(Cl)c(Cl)c2)c2n[nH]c(=S)o2)cc1
6. O=C(CC(=Cc1cccc([N+](=O)[O-])c1)c1n[nH]c(=S)o1)c1ccc(Cl)c(Cl)c1

1: 2.21; 2: 2.83; 3: 1.87; 4: 5.47; 5: 2; 6: 1.63
